IC50, HEK293 ST2 NFkB reference
Target: T1, human IL-33 (mm2) (human, UniProt O95760 112-270)
T1 chain: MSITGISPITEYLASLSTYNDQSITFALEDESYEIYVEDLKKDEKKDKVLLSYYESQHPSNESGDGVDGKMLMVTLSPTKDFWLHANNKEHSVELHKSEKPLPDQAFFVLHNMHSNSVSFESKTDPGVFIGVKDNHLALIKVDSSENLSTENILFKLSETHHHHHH
Experiment: cell-based or functional assay
PARAMETER: IC50, HEK293 ST2 NFkB (nM)

BINDER | PARAMETER | U | MEASURED_RESULT
rat 30A1 (30A1 hybridoma) (antibody, V domains shown) VH: QVNLLQSGATLVKPGASMKMSCKASGYSFTDYWVSWVKQSHGKSLEWIGEIYPNSGANNFNKEFKDKATLTVDKSTSTAYMELTRLTSEDSAVYYCTRGPYYYSSQIIFAYWGQGTLVTVSS VL: IIVMTQSPKSMSISVGDRVTMNCKASQNVGNNIAWYRQKPGQSPELLIYYASNRYTGVPDRFTGGGYGTDFTLTINSVQAEDAAFYYCQRIYNSPPTFGGGTKVELK | IC50, HEK293 ST2 NFkB | nM | 0.47
rat 30B11 (30B11 hybridoma) (antibody, V domains shown) VH: QVKLLQSGAALVKPGASVKMSCATSGFSFTDYWVSWVKQSHGKGLEWIGEIYPNSGADNFNENFKGKATLTVDKSTSTAYMELSRLTSEDSAIYYCTRGPYYYSTQIIFAYWGQGTLVTVSS VL: NIVMTQSPKSMSISVGDRVTMNCKASQNVGNNLAWYQQKPGQSPKLLIYYASNRYTGVPDRFTGGGYGTDFTLTINSVQAEDAAFYYCQRIYNSPPTFGGGTKVELR | IC50, HEK293 ST2 NFkB | nM | 0.038
rat 7E8 (7E8 hybridoma) (antibody, V domains shown) VH: EVQLVETGGGLVQPGRSLKLSCKTSGFTFSSYWMYWIRQAPGKGLEWVSSITPNGGNTYYPDSVKGRFTISRDNAENTIYLQMSSLRSEDTATYFCAKGHYYYTSYSLGYWGQGSLVTVSS VL: EIQMTQSPSVLSASVGDRVTLSCKASQNINKHLDWYQQKLGEAPKLLIYFTNNLQTGIPSRFSGSGSGTDCTLTINSLQPGDVATYFCFQYNNGWTFGGGTKLELD | IC50, HEK293 ST2 NFkB | nM | 0.043
rat 9B3 (9B3 hybridoma) (antibody, V domains shown) VH: EVQLVETGGGLVQPGRSLKLSCVASGFTFSNYWMYWIRQAPGMGLEWVSSINNDGGNTYYLDSVKGRFTISRNNAENTVYLQMNSLRSEDTATYYCAKGHYSYSSYSFSYWGQGTLVTVSS VL: DIQMTQSPSVLSASVGDRVTLSCKASHNINKHLDWCQQKVGEAPKLLIYFTNNLQTGIPSRFSGSGSGTDYTLTISSLQPEDVATYFCFQYNSGWTFGGGTKLELK | IC50, HEK293 ST2 NFkB | nM | 0.17

Provenance of the data: patent US20180037644A1
